experimental.system: Histone-lysine N-methyltransferase EHMT2 (Homo sapiens) (UniProt Q96KQ7)
Sequence (Q96KQ7 913-1193 limits assumed): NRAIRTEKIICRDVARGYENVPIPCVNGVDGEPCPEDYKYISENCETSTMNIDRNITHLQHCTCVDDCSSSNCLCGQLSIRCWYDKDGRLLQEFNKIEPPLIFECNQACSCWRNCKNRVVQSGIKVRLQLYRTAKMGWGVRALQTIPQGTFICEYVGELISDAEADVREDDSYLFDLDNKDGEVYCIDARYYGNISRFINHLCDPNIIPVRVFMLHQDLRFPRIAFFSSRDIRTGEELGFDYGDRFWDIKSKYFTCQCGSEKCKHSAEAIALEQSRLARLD
protocol.description: qHTS Assay for Inhibitors of Histone Lysine Methyltransferase G9a; note: nearly all actives have a fitted effect of over 75% in size; note: potency is the fitted concentration of half-maximal effect
experimental.conditions: G9a H3K9 monomethylation, AlphaScreen, 2 h; series mostly up to 59 µM
About 31,000 (8.9%) of roughly 350,000 compounds were called active. Another 15% or so got no clear call; they are omitted. Shown is part of a subset that was picked to be rich in actives.
measured.quantity: Potency

Recorded Potency, per entry:
COc1ccc(Br)cc1/C=N/NC(=O)c1cccc(S(=O)(=O)N2CCOCC2)c1	inactive
CS(=O)(=O)c1ccc2nc(NC(=O)c3ccc(N4CCCC4=O)cc3)sc2c1	inactive
O=C(CN1C(=O)CCn2nc(-c3ccccc3)cc21)NCc1ccccc1	inactive
CS(=O)(=O)c1ccc2nc(NC(=O)CN3CCCCCC3)sc2c1	17.8 µM (active)
COC(=O)C1=NN(c2ccccc2)C2C(=O)N(c3ccccc3OC)C(=O)C12 (stereo not given)	inactive
COC(=O)c1ccccc1N=Nc1c(C)[nH][nH]c1=O	inactive
Cc1csc(=O)n1CC(=O)OCC(=O)N(CC(C)C)c1c(N)n(Cc2ccccc2)c(=O)[nH]c1=O	inactive
CC1CCN(C(=O)COC(=O)CCC(=O)c2cccs2)CC1	inactive
CS(=O)(=O)c1ccc2nc(NC(=O)C3CCCCC3)sc2c1	inactive
COc1ccc2oc(C(=O)OCC(=O)N(CC(C)C)c3c(N)n(Cc4ccccc4)c(=O)[nH]c3=O)c(C)c2c1	39.8 µM (active)

// Potency lookup, molecule = `COc1cccc2sc(Nc3nc(C)c(C(C)=O)s3)nc12` , result: inactive

// Potency lookup, molecule = `Cc1cc(C)c2nc(-c3cccnc3)cc(C(=O)Nc3ccc(S(=O)(=O)Nc4onc(C)c4C)cc3)c2c1` , result: 50.1 µM (active)

// Potency lookup, molecule = O=C(NC1(C(F)(F)F)N=C(c2ccccc2)N(C2CCCCC2)C1=O)c1ccccc1F (stereo not given) , result: inactive

// Potency lookup, molecule = `Cc1cccc(CSc2nc3c(c(=O)n2C)SCC3)c1` , result: 50.1 µM (active)

// Potency lookup, molecule = COc1cc(C2C3C(=O)N(c4ccccc4)C(=O)C3ON2c2ccccc2)ccc1O (stereo not given) , result: inactive

// Potency lookup, molecule = `COCCN(C(=O)COC(=O)Cc1cccc(OC)c1)c1c(N)n(Cc2ccccc2)c(=O)[nH]c1=O` , result: inactive

// Potency lookup, molecule = `CN(C)[C@@H]1C(=O)C(C(N)=O)=C(O)[C@@]2(O)C(=O)C3=C(O)c4c(O)ccc(Cl)c4[C@@H](O)[C@H]3C[C@@H]12` , result: 7.94 µM (active)

// Potency lookup, molecule = `NS(=O)(=O)c1ccc(NC(=O)C(=O)Nc2ccc3nc4n(c(=O)c3c2)CCCCC4)cc1` , result: inactive

// Potency lookup, molecule = `Cc1ccc2c(c1)-c1c(cnn1CC(=O)Nc1ccccc1C#N)CO2` , result: inactive

// Potency lookup, molecule = `COc1cccc2sc(NNC(=O)c3nc4ccccc4s3)nc12` , result: 12.6 µM (active)
